Tested on: Molt3 cells
protocol: Cell metabolic assay (MTT)
Assay type: cell-based, human
condition: 1820 μM
Where no end group is shown, it is not given here.
Could you label it TRUE if measured MTT % Viability is 40% or higher, and FALSE otherwise?

Check if MTT % Viability >= 40% (inclusive). Item: GVDVDQDGETELIGAPLFYGEQRG [LJCRF-5] FALSE

Decide: is the reported value of MTT % Viability for QTSVSPSKVI [SC-3-111] equal to or greater than 40%? TRUE

Does the sequence DLSYSLDDLRNVKKLGGDLLRALNE [LJCRF-4] have recorded MTT % Viability that is 40% or more? FALSE

Please tell me: is the sequence QTSVSPSKVILPRGGSVLVTG [LJCRF-1] at or over 40% in terms of MTT % Viability? TRUE

Quick check, MTT % Viability >= 40%? DQPKLLGIETPLPKKELLLPGNNRK [LJCRF-2] TRUE

###

For each of the sequences below, state its Fluorescence, % change from control of the medium fluorescence intensity.
target-or-system: LFA-1 (CD11a) on Molt3 cells (Homo sapiens, UniProt P20701)
Construct: host or cells: Molt3 human T-cell line
Sequence (P20701 26-1170): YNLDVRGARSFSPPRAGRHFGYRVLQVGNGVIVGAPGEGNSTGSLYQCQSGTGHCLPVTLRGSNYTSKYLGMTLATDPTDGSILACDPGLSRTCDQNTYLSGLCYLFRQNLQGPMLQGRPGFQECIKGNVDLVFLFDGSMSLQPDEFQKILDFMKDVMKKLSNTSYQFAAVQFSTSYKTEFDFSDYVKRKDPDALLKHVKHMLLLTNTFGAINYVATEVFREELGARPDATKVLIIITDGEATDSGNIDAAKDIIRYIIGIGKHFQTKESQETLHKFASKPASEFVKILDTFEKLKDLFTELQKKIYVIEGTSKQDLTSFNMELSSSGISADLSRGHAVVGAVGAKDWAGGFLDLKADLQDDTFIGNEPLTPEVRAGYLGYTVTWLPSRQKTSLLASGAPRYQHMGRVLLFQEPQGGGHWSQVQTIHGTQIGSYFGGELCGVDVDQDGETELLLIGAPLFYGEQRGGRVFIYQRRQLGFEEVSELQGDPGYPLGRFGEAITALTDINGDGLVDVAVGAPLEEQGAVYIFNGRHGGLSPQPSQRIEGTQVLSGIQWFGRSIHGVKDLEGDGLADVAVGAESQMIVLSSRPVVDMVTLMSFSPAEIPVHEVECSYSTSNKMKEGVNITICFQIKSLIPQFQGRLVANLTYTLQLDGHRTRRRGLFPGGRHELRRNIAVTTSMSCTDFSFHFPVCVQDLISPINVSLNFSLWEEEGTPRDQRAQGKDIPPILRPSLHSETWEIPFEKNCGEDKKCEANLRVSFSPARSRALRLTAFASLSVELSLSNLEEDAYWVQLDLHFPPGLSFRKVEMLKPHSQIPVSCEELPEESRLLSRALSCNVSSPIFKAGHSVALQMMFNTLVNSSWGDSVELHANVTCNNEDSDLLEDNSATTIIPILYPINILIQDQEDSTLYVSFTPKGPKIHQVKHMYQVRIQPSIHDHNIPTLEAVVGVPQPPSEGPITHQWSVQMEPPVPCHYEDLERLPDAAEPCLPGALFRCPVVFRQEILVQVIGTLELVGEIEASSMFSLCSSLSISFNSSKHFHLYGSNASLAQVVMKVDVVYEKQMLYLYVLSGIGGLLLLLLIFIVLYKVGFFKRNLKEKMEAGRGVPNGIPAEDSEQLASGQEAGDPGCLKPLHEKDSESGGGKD
Sequence (P05107 23-769 partner): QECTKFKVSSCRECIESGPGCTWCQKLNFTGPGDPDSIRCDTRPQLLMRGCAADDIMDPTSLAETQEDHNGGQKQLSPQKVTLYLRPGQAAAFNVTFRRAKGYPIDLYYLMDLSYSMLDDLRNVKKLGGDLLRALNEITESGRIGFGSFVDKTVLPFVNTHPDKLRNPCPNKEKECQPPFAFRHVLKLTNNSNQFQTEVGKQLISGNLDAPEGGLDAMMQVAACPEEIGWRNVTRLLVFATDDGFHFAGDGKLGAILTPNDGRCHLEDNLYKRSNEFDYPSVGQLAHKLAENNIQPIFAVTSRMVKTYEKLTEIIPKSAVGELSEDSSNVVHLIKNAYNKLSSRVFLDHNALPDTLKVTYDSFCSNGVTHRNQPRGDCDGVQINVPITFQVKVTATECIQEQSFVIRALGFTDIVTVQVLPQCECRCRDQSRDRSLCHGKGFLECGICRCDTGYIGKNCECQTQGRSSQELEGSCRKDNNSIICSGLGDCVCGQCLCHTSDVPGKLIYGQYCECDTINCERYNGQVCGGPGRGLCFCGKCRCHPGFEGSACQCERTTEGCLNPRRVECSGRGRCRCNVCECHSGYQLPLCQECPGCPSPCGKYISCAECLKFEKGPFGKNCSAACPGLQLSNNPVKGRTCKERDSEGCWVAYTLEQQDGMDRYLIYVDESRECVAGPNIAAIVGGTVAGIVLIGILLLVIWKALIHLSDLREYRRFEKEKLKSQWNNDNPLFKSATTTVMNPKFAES
protocol: Antibody binding assay (FACS): anti-CD11a mAb binding to Molt3 T-cells
condition: mAb CD11a; peptide 4550 μM; average ± standard error
Where no end group is shown, it is not given here.
API: value field is a number in %; no unit string.

Returns the measured Fluorescence, % change from control of the medium fluorescence intensity for the input sequence. Input: KELLLPGNNRKVYELSNVQEDSQP [LJCRF-3] -13

// lookup Fluorescence, % change from control of the medium fluorescence intensity for QTSVSPSKVILPRGGSVLVTG [LJCRF-1] -29

Returns the measured Fluorescence, % change from control of the medium fluorescence intensity for the input sequence. Input: QTSVSPSKVI [SC-3-111] -29

Fluorescence, % change from control of the medium fluorescence intensity lookup needed for DQPKLLGIETPLPKKELLLPGNNRK [LJCRF-2] , thanks. -43

###

System: Molt3 cells
protocol: Cell metabolic assay (MTT)
Type: cell-based, human
condition: 230 μM
Where no end group is shown, it is not given here.
Record form. Attribute: MTT % Viability. Fill in for each entry.
Response body: numeric value in %, unit text excluded.

Tell me the measured MTT % Viability of DLSYSLDDLRNVKKLGGDLLRALNE [LJCRF-4] , please. 101

Query (sequence): DQPKLLGIETPLPKKELLLPGNNRK [LJCRF-2] ; field requested: MTT % Viability 38

Entry GVDVDQDGETELIGAPLFYGEQRG [LJCRF-5] has what MTT % Viability? 84

Would you kindly share the measured MTT % Viability for QTSVSPSKVI [SC-3-111] ? 93

###

I'd be grateful if you could share measured MTT % Viability for these entries.
Tested on: Molt3 cells
protocol: Cell metabolic assay (MTT)
Type: cell-based, human
condition: 910 μM
Description: After taking the photographs in Example 3 (and in some instances no photographs were taken), cell metabolic activity was assessed by an MTT assay. […] After incubation, a 250 μl quantity of a MTT solubilization solution (of a type that may be purchased from either Fischer Scientific of St. Louis, Mo. or BCD Labs of Lawrence, Kans.) was added to each well, and incubated with the cells at room temperature overnight. […]
Where no end group is shown, it is not given here.
Please state the figure in %; there is no need to write the unit.

What value of MTT % Viability on Molt3 cells does DLSYSLDDLRNVKKLGGDLLRALNE [LJCRF-4] have? 60

API: value(readout=MTT % Viability, system=Molt3 cells) for record GVDVDQDGETELIGAPLFYGEQRG [LJCRF-5] 52

Quick check: MTT % Viability on Molt3 cells, item QTSVSPSKVI [SC-3-111] ? 89

// lookup MTT % Viability | system=Molt3 cells | key= QTSVSPSKVILPRGGSVLVTG [LJCRF-1] 92

Give MTT % Viability (Molt3 cells) of the following sequence: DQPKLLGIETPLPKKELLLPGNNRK [LJCRF-2] 38

###

System: Molt3 cells
protocol: Cell metabolic assay (MTT)
Format: cell-based, human
condition: 460 μM
Where no end group is shown, it is not given here.
Response field label takes Y when MTT % Viability is strictly below 90% and N in all other cases.

I wonder whether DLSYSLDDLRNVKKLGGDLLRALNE [LJCRF-4] has MTT % Viability below 90%. Can you tell? N

In the record for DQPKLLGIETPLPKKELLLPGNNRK [LJCRF-2] , is MTT % Viability less than 90%? Y

Is 90% strictly greater than the sequence's reported MTT % Viability? sequence: QTSVSPSKVILPRGGSVLVTG [LJCRF-1] N

Below 90% on MTT % Viability? Entry QTSVSPSKVI [SC-3-111] N

Decide: MTT % Viability of GVDVDQDGETELIGAPLFYGEQRG [LJCRF-5] strictly below 90%? Y
